# Target or system: Autotaxin (Homo sapiens) (UniProt Q13822);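 further: activity read as cleavage of a fluorescent lysophosphatidylcholine analog by autotaxin expressed in the cells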
# Test conditions: MDA-MB-435, at 10 µM
# Description: Inhibition of human autotaxin expressed in MDA-MB-435 cells assessed as fluorescent lysophosphatidyl choline analog hydrolysis at 10 uM
Measurement name: inhibition (%)
# output: bare number, implied unit %

Prompt: Data request, read-out inhibition, for O=S(=O)(O)c1cc(O)c2c(/N=N/c3c(S(=O)(=O)O)cc4cc(S(=O)(=O)O)cc(O)c4c3O)cc(S(=O)(=O)O)cc2c1
Completion: 85

Prompt: Now the compound CCCCN1C(=O)c2ccc(C(=O)Nc3cc(C(=O)O)cc(C(=O)O)c3)cc2C1=O
Completion: 89

Prompt: Now the compound O=C(O)c1cccc(NC(=O)c2ccc3c(c2)C(=O)N(Cc2cccnc2)C3=O)c1
Completion: 56

Prompt: Now the compound COC(=O)c1ccc(N2C(=O)c3ccc(C(=O)c4ccc5c(c4)C(=O)N(c4ccc(C(=O)OC)cc4)C5=O)cc3C2=O)cc1
Completion: 65

Prompt: Now the compound O=C(O)c1ccc(Oc2ccc(C(=O)c3ccc4c(c3)C(=O)N(c3cccc5ccccc35)C4=O)cc2)cc1
Completion: 31

Prompt: Now the compound O=C(/C=C/c1cccc(N2C(=O)c3ccc(C(=O)c4cccc([N+](=O)[O-])c4)cc3C2=O)c1)c1ccccc1
Completion: 90

Prompt: Now the compound O=C(O)c1ccc2c(c1)C(=O)N(c1ccc(-c3nnc(-c4ccccc4)o3)cc1)C2=O
Completion: 87

Prompt: Now the compound Cc1c(NS(=O)(=O)CC23CCC(CC2=O)C3(C)C)c(=O)n(-c2ccccc2)n1C (stereo not drawn)
Completion: 88

Prompt: Now the compound O=C(O)c1ccc(Oc2ccc(C(=O)c3ccc4c(c3)C(=O)N(c3ccc(O)cc3)C4=O)cc2)cc1
Completion: 62

Prompt: Now the compound O=C(O)c1cn(C2CC2)c2cc(N3CCN(C(=S)Nc4ccc5c(c4)OCCO5)CC3)c(F)cc2c1=O
Completion: 91

Prompt: Now the compound O=C(O)c1cc(NC(=O)c2ccc3c(c2)C(=O)N(Cc2cccnc2)C3=O)cc(C(=O)O)c1
Completion: 86

Prompt: Now the compound CC(=O)Oc1cccc(N2C(=O)c3ccc(C(=O)c4ccc5c(c4)C(=O)N(c4cccc(OC(C)=O)c4)C5=O)cc3C2=O)c1
Completion: 80

Prompt: Now the compound O=C(c1ccc2c(c1)C(=O)N(N1C(=O)c3ccccc3C1=O)C2=O)c1ccc2c(c1)C(=O)N(N1C(=O)c3ccccc3C1=O)C2=O
Completion: 90

Prompt: Now the compound O=C(c1ccc2c(c1)C(=O)N(c1ccc(Br)cc1)C2=O)c1ccc2c(c1)C(=O)N(c1ccc(Br)cc1)C2=O
Completion: 93

Prompt: Now the compound CCn1c(SCC(=O)Nc2ccc(C(C)=O)cc2)nc2nc3c(cc2c1=O)CCCC3
Completion: 21

Prompt: Now the compound O=C(O)c1cccc(NC(=O)c2ccc3c(c2)C(=O)N(c2ccc(/N=N/c4ccccc4)cc2)C3=O)c1
Completion: 45

Prompt: Now the compound Cc1ccc(C(=O)O)cc1N1C(=O)c2ccc(C(=O)c3ccc4c(c3)C(=O)N(c3cc(C(=O)O)ccc3C)C4=O)cc2C1=O
Completion: 83

Prompt: Now the compound O=C(NN1C(=O)c2ccc(C(=O)c3ccc4c(c3)C(=O)N(NC(=O)c3ccncc3)C4=O)cc2C1=O)c1ccncc1
Completion: 31

Prompt: Now the compound O=C(O)c1ccc2c(c1)C(=O)N(c1ccc(/N=N/c3ccccc3)cc1)C2=O
Completion: 82

Prompt: Now the compound Cc1ccccc1NC(=O)c1cccc(N2C(=O)c3ccc(C(=O)O)cc3C2=O)c1
Completion: 79

Prompt: Now the compound CC(=O)Oc1ccc(N2C(=O)c3ccc(C(=O)c4ccc5c(c4)C(=O)N(c4ccc(OC(C)=O)cc4C(=O)O)C5=O)cc3C2=O)c(C(=O)O)c1
Completion: 53

Prompt: Now the compound O=C(O)c1cccc(NC(=O)c2ccc3c(c2)C(=O)N(C2CCCCC2)C3=O)c1
Completion: 55

Prompt: Now the compound O=C(O)c1cccc(NC(=O)c2ccc3c(c2)C(=O)N(c2ccccc2)C3=O)c1
Completion: 79

Prompt: Now the compound CC(=O)Nc1ccc(N2C(=O)c3ccc(C(=O)c4ccc5c(c4)C(=O)N(c4ccc(NC(C)=O)cc4)C5=O)cc3C2=O)cc1
Completion: 59

Prompt: Now the compound CCn1cc(C(=O)O)c(=O)c2cnc(N3CCN(C(=S)Nc4cc5oc6ccccc6c5cc4OC)CC3)nc21
Completion: 88

Prompt: Now the compound Cc1ccnc(N2C(=O)c3ccc(C(=O)c4ccc5c(c4)C(=O)N(c4cc(C)ccn4)C5=O)cc3C2=O)c1
Completion: 91

Prompt: Now the compound O=C(O)c1cccc(NC(=O)c2ccc3c(c2)C(=O)N(c2nccs2)C3=O)c1
Completion: 71

Prompt: Now the compound O=C(O)c1ccc(Oc2ccc(C(=O)c3ccc4c(c3)C(=O)N(c3ccc([N+](=O)[O-])cc3)C4=O)cc2)cc1
Completion: 90

Prompt: Now the compound CCS(=O)(=O)N1N=C(c2ccc(NS(C)(=O)=O)cc2)CC1c1ccc(OC)cc1 (stereo not drawn)
Completion: 89

Prompt: Now the compound CCn1cc(C(=O)O)c(=O)c2cnc(N3CCN(C(=S)NC(=O)c4c(-c5ccccc5)noc4C)CC3)nc21
Completion: 78

Prompt: Now the compound O=C(Cc1ccccc1)Nc1cc(N2C(=O)c3ccc(C(=O)O)cc3C2=O)ccc1Cl
Completion: 74

Prompt: Now the compound CC(=O)OCCN1C(=O)c2ccc(C(=O)c3ccc4c(c3)C(=O)N(CCOC(C)=O)C4=O)cc2C1=O
Completion: 91

Prompt: Now the compound O=C(O)c1ccc2c(c1)C(=O)N(c1ccc(Oc3ccc([N+](=O)[O-])cc3)cc1)C2=O
Completion: 70
